test: Viability Counterscreen for Confirmatory qHTS for Inhibitors of ATXN expression; settings: HEK-293 ATXN2-luc cells viability, CellTiter-Fluor, 24 h; note: nearly all actives have a fitted effect of over 50% in size; note: potency is the fitted concentration of half-maximal effect
The campaign covered roughly 2,100 compounds. About 260 (12%) were called active. Roughly 58% stayed inconclusive and do not appear here. The list shows a part of the results.
Reported endpoint: Potency

Some solved entries appear below for comparison.
{"Compound": "O=C(CN1c2cccc3cccc(c23)S1(=O)=O)NCc1ccc(Cl)cc1", "Potency": "inactive"}
{"Compound": "CCOC(=O)c1ccc2ncc(C(=O)OCC)c(Nc3ccc(N4CCOCC4)cc3)c2c1", "Potency": "3.16 µM (active)"}
{"Compound": "CCOC(=O)c1c(-c2ccccc2)oc2ccc(OCC(=O)NN)cc12", "Potency": "inactive"}
{"Compound": "O=C(Nc1ccccc1C(=O)Nc1nnc(C(F)(F)F)s1)c1ccccc1", "Potency": "3.98 µM (active)"}
{"Compound": "COc1cccc(/C=N/NC(=O)CC(C)O)c1OC/C=C/c1ccccc1 (stereo not given)", "Potency": "inactive"}
{"Compound": "CCCCC(=O)N(CCOC)c1nnc(-c2ccccc2C)s1", "Potency": "inactive"}
{"Compound": "Oc1c(C(c2ccccn2)N2CCC(Cc3ccccc3)CC2)cc(Cl)c2cccnc12 (stereo not given)", "Potency": "25.1 µM (active)"}
{"Compound": "CCOC(=O)Nc1ccc(N2CCOCC2)c(S(=O)(=O)Nc2ccc(Cl)cc2)c1", "Potency": "inactive"}

For the compound shown here, CCc1cc(-c2[nH]ncc2-c2ccc(OC)cc2)c(O)cc1O , give the reported Potency. inactive

For the compound shown here, COc1ccc(N2C3=C(CC4=C2CC(C)(C)CC4=O)C(=O)CC(C)(C)C3)cc1 , give the reported Potency. inactive
